Field: Relative to UNC0638 UNC Light. Provide a value for each of the molecules that follow.
- SUBJECT OF TEST: T1, G9a and GLP (Homo sapiens, UniProt Q96KQ7+Q9H9B1)
- T1 sequence (Q96KQ7 2-1210 limits assumed): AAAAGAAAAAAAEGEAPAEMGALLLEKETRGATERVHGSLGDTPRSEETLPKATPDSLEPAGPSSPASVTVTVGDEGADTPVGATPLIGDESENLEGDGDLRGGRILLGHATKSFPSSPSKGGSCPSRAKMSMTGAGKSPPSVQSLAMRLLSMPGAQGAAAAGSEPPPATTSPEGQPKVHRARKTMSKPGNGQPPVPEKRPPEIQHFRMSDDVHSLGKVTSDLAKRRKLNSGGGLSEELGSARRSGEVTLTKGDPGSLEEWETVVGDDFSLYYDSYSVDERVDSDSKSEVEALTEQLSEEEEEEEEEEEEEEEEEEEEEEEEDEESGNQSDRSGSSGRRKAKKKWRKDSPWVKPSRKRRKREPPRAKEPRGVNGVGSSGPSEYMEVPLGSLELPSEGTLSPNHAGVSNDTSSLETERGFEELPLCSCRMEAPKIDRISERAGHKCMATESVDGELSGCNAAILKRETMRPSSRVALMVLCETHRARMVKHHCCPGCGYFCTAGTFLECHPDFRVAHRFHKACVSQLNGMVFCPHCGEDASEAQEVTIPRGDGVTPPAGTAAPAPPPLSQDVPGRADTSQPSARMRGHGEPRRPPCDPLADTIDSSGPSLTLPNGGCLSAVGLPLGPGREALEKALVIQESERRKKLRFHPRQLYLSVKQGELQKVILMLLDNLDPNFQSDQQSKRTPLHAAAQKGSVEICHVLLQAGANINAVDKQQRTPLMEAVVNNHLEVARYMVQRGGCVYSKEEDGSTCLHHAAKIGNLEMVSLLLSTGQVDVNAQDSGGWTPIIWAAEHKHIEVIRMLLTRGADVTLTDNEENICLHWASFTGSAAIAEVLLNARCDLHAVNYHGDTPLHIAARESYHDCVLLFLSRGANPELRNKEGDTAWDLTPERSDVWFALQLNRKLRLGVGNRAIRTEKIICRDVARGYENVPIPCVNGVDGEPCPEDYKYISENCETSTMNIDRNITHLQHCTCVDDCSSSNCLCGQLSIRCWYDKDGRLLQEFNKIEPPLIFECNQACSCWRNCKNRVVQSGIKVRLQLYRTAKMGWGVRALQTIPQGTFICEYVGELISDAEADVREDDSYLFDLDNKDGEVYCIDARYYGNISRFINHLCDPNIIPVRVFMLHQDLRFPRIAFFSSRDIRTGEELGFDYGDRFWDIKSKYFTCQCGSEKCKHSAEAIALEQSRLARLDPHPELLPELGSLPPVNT
- T1 sequence (Q9H9B1 2-1298 limits assumed): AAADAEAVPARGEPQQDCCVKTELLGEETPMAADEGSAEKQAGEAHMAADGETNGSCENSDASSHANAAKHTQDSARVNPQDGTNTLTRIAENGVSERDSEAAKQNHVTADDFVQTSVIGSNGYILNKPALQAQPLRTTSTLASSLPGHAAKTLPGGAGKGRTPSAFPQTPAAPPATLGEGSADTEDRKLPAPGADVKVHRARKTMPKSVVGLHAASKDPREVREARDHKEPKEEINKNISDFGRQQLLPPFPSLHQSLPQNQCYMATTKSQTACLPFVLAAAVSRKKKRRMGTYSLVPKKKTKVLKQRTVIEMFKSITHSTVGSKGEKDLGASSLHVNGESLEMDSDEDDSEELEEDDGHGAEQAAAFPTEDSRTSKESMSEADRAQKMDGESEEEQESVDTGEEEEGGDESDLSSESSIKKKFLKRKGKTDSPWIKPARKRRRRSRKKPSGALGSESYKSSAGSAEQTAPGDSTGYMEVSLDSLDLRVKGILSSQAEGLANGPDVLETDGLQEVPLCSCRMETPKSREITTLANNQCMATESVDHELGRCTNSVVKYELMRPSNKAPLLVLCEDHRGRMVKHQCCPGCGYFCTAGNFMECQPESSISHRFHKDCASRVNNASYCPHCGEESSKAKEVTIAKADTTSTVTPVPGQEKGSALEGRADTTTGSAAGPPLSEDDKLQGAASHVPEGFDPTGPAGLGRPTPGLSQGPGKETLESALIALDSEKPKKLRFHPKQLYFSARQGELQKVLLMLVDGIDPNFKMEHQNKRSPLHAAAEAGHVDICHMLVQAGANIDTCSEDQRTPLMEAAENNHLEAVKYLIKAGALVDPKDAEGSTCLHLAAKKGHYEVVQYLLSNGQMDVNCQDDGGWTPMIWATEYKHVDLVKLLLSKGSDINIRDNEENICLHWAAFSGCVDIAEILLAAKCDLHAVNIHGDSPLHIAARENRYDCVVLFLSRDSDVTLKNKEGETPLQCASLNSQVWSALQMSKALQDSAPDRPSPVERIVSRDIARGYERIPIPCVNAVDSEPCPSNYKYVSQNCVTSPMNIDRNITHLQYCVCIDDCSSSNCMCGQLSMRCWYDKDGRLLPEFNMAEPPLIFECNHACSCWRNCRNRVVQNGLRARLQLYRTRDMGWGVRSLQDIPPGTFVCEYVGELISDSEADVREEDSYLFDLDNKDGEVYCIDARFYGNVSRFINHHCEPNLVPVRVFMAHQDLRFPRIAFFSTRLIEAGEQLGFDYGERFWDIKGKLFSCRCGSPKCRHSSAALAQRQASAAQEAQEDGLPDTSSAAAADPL
- PROTOCOL: Triple SILAC pull-down after UNC0638 treatment of 293T cells, DMSO/UNC0638 ratio of protein captured by 3×MBT;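 note: mass spectrometry (Q-Exactive) SILAC quantitation, DMSO/UNC0638 ratio computed after subtracting 3×MBTD355N mutant pull-down background, only proteins with at least twofold 3×MBT over mutant signal considered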
- Type: cell-based
- Set-up: cells were treated for 24 hours with UNC0638 at 2.5 μM or DMSO vehicle control; endogenous in cells; host or cells: HEK 293T
- REPORTED CONDITIONS: SILAC ratio DMSO/UNC0638 of protein pulled down with 3xMBT; UNC0638 in light SILAC media
A complete answer gives the number followed by the unit.

Record NHP2L1: protein with methylated lysine identified in 3xMBT pull-down (protein, UniProt P55769 1-128, looked up) NHP2-like protein 1: MTEADVNPKAYPLADAHLTKKLLDLVQQSCNYKQLRKGANEATKTLNRGISEFIVMAADAEPLEIILHLPLLCEDKNVPYVFVRSKQALGRACGVSRPVIACSVTIKEGSQLKQQIQSIQQSIERLLV . Reported Relative to UNC0638 UNC Light: 1.33 log base 2

Record CACYBP (protein, UniProt Q9HB71 2-228, looked up) Calcyclin-binding protein: ASEELQKDLEEVKVLLEKATRKRVRDALTAEKSKIETEIKNKMQQKSQKKAELLDNEKPAAVVAPITTGYTVKISNYGWDQSDKFVKIYITLTGVHQVPTENVQVHFTERSFDLLVKNLNGKSYSMIVNNLLKPISVEGSSKKVKTDTVLILCRKKVENTRWDYLTQVEKECKEKEKPSYDTETDPSEGLMNVLKKIYEDGDDDMKRTINKAWVESREKQAKGDTEF . Reported Relative to UNC0638 UNC Light: 0.20 log base 2

Data provenance: patent US20140274782A1
